Attribution: paper PMC9246869

Target: PPM1D1–420 (Homo sapiens, UniProt O15297)
Construct: PPM1D1–420 was PCR-amplified from the synthesized gene with BsaI sites; His(6)-SUMO (N, cleaved yes); made in house; host or cells: E. coli BL21 (DE3)
Sequence (O15297 1-420): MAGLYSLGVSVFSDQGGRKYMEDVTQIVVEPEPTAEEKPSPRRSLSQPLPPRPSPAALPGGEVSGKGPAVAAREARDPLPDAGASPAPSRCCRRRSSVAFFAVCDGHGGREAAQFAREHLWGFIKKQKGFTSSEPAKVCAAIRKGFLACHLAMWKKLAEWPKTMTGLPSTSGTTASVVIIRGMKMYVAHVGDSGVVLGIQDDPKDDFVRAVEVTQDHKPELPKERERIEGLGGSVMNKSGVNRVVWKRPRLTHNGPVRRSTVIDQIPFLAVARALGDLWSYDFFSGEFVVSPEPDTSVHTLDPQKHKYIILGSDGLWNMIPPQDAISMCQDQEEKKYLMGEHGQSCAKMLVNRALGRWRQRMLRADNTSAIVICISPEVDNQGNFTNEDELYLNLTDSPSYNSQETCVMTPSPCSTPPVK
Assay: Surface plasmon resonance (SPR)
Assay type: binding
Conditions: Fig 3D; Average of 3 trials; read-out: KD
observation_type: Kd (nM)

{"structure_smiles": "Cc1ncc(Cl)cc1NCc1ccc(C(=O)N[C@@H](CC2CCCC2)C(=O)NC2CC2)s1", "system": "PPM1D1–420 (Homo sapiens, UniProt O15297)", "recorded_result": 1.2}

----------
target: PPM1DΔflap (Homo sapiens, UniProt O15297, DEL219-231/DEL235-284/E287S/S285N); construct: PPM1D1–218-GGSNGS-288–420 (PPM1D∆flap); His(6)-SUMO (N, cleaved yes); made in house; host or cells: E. coli BL21 (DE3); test: Surface plasmon resonance (SPR); assay type: binding; conditions: PPM1DΔflap; Fig. 6A

{"compound": "Cc1ncc(Cl)cc1NCc1ccc(C(=O)N[C@@H](CC2CCCC2)C(=O)NC2CC2)s1 [GSK2830371]", "system": "PPM1DΔflap (Homo sapiens, UniProt O15297, DEL219-231/DEL235-284/E287S/S285N)", "Kd / nM": 1}

----------
Target: PPM1D1–420 (Homo sapiens)
Construct: PPM1D1–420 was PCR-amplified from the synthesized gene with BsaI sites; His(6)-SUMO (N, cleaved yes); made in house; host or cells: E. coli BL21 (DE3)
Sequence (O15297 1-420): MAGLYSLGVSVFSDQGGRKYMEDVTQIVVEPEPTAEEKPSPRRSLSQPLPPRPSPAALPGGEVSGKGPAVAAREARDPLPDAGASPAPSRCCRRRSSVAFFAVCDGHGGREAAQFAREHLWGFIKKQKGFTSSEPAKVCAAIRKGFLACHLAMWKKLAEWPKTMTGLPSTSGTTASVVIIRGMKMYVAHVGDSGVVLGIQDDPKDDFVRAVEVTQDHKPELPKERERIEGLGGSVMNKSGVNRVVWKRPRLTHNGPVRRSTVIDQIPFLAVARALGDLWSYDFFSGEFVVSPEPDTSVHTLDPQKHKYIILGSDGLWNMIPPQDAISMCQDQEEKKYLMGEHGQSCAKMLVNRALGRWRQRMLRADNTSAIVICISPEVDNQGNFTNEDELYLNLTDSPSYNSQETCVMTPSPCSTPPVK
Experiment: p38 MAPK enzymatic assay (LC/MS, dephosphorylation of T180)
Format: biochemical
Conditions: PPM1D1–420; full length p38 MAPK substrate, LC/MS
Procedure: To generate the double phosphorylated form of p38 MAPK for the LC/MS enzymatic PPM1D assay, 20 µM p38 MAPK was incubated with 100 nM MKK6 in 50 mM HEPES pH 7.4, 10 mM ATP, 40 mM MgCl2, and 100 µM TCEP at RT for 2 h. […] The enzymatic activity of the PPM1D constructs was measured by quantifying the dephosphorylation of the substrate protein p38PP by LC/MS. […] Plates were analyzed within the same day of the quench step. […]
pIC50: −log10 of the molar value.

{"compound": "NCCCCNC(=O)[C@H](CC1CCCCC1)NC(=O)c1ccc(CNc2cc(Cl)ccn2)s1 [analog 1d]", "pIC50": 7.65}
